Hey, just so you know, these numbers are from patent US20190040130A1.

Here, each record is paired with measured Cell binding (FOB) data.
target-system: T1, human TREM2 expressed on cells (human, UniProt Q9NZC2 19-230)
T1 construct: also called huT2 BW; cell expressed TREM2
T1 sequence: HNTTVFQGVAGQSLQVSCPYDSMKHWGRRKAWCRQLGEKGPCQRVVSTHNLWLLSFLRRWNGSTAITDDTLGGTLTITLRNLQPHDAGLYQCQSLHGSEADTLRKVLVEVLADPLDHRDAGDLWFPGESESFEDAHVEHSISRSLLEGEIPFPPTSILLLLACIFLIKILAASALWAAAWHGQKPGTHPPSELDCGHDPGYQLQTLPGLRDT
method-summary: FACS, BW cells
The figure you give is taken to be in fold over background; do not add the unit.

Example results:
AL2p-h59 (antibody, IgG1, V domains shown, IgG1; Fab in monovalent BLI) VH: QVQLVQSGAEVKKPGASVKVSCKASGYAFSSSWMNWVRQAPGQRLEWMGRIYPGDGDTNYAQKFQGRVTITRDTSASTAYMELSSLRSEDTAVYYCARLLRNQPGESYAMDYWGQGTLVTVSS VL: DIVMTQSPLSLPVTPGEPASISCRSSQSLVHSNGYTYLHWYLQKPGQSPQLLIYKVSNRFSGVPDRFSGSGSGTDFTLKISRVEAEDVGVYYCSQSTRVPYTFGGGTKVEIK :: 69
AL2p-h32 (antibody, IgG1, V domains shown, IgG1; Fab in monovalent BLI) VH: QVQLVQSGAEVKKPGSSVKVSCKASGYAFSSSWMNWVRQAPGQGLEWIGRIYPGDGDTNYNGEFRVRATLTADTSTTTAYMELSSLRSEDTAVYFCARLLRNQPGESYAMDYWGQGTLVTVSS VL: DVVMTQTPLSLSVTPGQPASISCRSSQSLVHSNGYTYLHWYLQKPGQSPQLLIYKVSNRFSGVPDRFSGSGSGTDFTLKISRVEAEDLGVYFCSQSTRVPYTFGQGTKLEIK :: 81
AL2p-h24 (antibody, IgG1, V domains shown, IgG1; Fab in monovalent BLI) VH: QVQLVQSGAEVVKPGASLKISCKASGYAFSSSWMNWVRQAPGQGLEWIGRIYPGDGDTNYNQKFQGRATLTADTSTSTAYMELSSLRSEDTAVYFCARLLRNQPGESYAMDYWGQGALVTVSS VL: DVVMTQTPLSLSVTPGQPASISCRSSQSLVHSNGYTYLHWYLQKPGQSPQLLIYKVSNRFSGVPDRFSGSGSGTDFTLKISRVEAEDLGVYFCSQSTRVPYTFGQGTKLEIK :: 69

Q: Which Cell binding (FOB) value is on record for AL2p-h35 (antibody, IgG1, V domains shown, IgG1; Fab in monovalent BLI) VH: QVQLVQSGAEVKKPGSSVKVSCKASGYAFSSSWMNWVRQAPGQGLEWMGRIYPGDGDTNYAQKFQGRATITADTSTSTAYMELSSLRSEDTAVYYCARLLRNQPGESYAMDYWGQGTLVTVSS VL: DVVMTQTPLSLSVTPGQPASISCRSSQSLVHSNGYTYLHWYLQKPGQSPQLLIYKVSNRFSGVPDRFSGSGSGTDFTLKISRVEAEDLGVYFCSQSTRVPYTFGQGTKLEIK ?
A: 69

Q: Next record, please: AL2p-h90 (antibody, IgG1, V domains shown, IgG1; Fab in monovalent BLI) VH: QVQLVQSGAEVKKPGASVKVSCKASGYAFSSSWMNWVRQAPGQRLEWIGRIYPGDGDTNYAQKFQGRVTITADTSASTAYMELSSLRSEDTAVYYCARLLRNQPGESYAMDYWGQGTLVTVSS VL: DVQMTQSPSSLSASVGDRVTITCRSSQSLVHSNGYTYLHWYQQKPGKSPKLLIYKVSNRFSGVPSRFSGSGSGTDFTLTISSLQPEDFATYYCSQSTRVPYTFGGGTKVEIK
A: 126
